Reference source: patent US8183239B2

# targetUnderTest: Y2 receptors (Homo sapiens)
# Construct: endogenous in cells; host or cells: KAN-Ts cells (membranes)
# Sequence (P49146 1-381): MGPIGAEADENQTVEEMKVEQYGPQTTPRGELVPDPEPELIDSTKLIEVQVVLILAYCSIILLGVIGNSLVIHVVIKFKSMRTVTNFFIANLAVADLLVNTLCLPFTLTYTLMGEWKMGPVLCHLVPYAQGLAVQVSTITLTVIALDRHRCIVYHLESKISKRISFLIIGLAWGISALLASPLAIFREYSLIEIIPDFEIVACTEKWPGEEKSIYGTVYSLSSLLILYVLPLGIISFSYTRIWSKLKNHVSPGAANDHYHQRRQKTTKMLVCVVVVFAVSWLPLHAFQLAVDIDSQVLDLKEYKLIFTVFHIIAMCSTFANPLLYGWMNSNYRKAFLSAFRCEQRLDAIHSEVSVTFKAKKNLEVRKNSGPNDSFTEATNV
# protocolDescription: Radioligand binding assay ([125I]PYY, KAN-Ts cell membranes)
# reportedConditions: Table 1, [125I]PYY 80 pM, average of results, read-out: IC50
IC50 reference

Here is how some molecules turned out for IC50.
# molecule, measure, observedValue
data = [
    ("CNc1ccccc1C(=O)Nc1ccc(N2CCN(C(C(=O)OC)c3ccccc3)CC2)cc1 (centres unmarked)", "IC50", "3000 nM"),
    ("CCC(CC)C(=O)Nc1ccc(N2CCN(C(C(=O)N3CCCC3)c3ccccc3)CC2)c(F)c1 (centres unmarked)", "IC50", "58 nM"),
    ("COC(=O)C(c1ccccc1)N1CCN(c2ccc(NC(=O)CCC(C)C)cc2)CC1 (centres unmarked)", "IC50", "1700 nM"),
    ("CCNC(=O)C(c1cccc(F)c1)N1CCN(c2ccc(NC(=O)C(CC)CC)cc2F)CC1 (centres unmarked)", "IC50", "250 nM"),
    ("CCN(CC)C(=O)C(c1ccccc1)C1CCN(c2ccc(NC(=O)Cc3c(F)cccc3F)cc2F)CC1 (centres unmarked)", "IC50", "230 nM"),
]

Recorded IC50 of `CCC(CC)C(=O)Nc1ccc(N2CCN(Cc3ccccc3C(=O)N(CC)CC)CC2)c(F)c1` , please.
370 nM

Lookup COC(=O)C(c1ccccc1)N1CCN(c2ccc(NC(=O)c3ccccn3)cc2)CC1 (centres unmarked)
12000 nM

###

# targetUnderTest: Y2 receptors (Homo sapiens, UniProt P49146)
# Construct: endogenous in cells; host or cells: KAN-Ts cells (membranes)
# Sequence (P49146 1-381): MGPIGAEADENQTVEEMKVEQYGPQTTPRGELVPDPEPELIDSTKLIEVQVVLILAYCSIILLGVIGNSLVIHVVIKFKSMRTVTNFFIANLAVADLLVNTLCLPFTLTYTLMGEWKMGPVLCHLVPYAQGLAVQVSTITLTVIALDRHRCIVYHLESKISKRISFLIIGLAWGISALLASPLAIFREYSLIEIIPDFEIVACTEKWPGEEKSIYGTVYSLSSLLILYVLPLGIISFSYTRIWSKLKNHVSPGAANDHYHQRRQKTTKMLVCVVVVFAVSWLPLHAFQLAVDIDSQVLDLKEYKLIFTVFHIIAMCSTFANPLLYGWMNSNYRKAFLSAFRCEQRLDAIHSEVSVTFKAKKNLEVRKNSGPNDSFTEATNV
# protocolDescription: Radioligand binding assay ([125I]PYY, KAN-Ts cell membranes)
# reportedConditions: Table 1, [125I]PYY 80 pM, average of results, read-out: IC50
Label true (1) when IC50 is strictly below 0.08 µM; otherwise label false (0).

These solved cases illustrate the format of a correct answer.
# molecule, class
rows = [
    ("CCN(CC)C(=O)C(c1ccccc1)N1CCN(c2ccc(NC(=O)[C@@H]3CCOC3)cc2C#N)CC1 (stereo partly shown)", "true (1)"),
    ("CCC(CC)C(=O)Nc1ccc(N2CCN(C(C(=O)N(CC)CC)c3ccc(F)cc3)CC2)c(F)c1 (stereo not shown)", "false (0)"),
    ("CCN(CC)C(=O)C(c1ccccc1)C1CCN(c2ccc(NC(=O)c3cnoc3C)cc2F)CC1 (stereo not shown)", "false (0)"),
    ("CCCCCC(=O)Nc1ccc(N2CCN(C(C(=O)OC)c3ccccc3)CC2)cc1 (stereo not shown)", "false (0)"),
    ("CCN(CC)C(=O)C(c1ccccc1)C1CCN(c2ccc(NC(=O)c3cccnc3C)cc2F)CC1 (stereo not shown)", "true (1)"),
]

Field: below-cutoff. Rule: recorded IC50 strictly less than 0.08 µM. Subject: CCNC(=O)C(c1ccccc1)N1CCN(c2ccc(NC(=O)CCC(C)C)cc2F)CC1 (stereo not shown)
false (0)

Please give the result for CCN(CC)C(=O)C(c1ccccc1)C1CCN(c2ccc(NC(=O)[C@H]3CCOC3)cc2F)CC1 (stereo partly shown) too.
true (1)

Try this molecule too: CCN(CC)C(=O)C(c1ccccc1)C1CCN(c2ccc(NC(=O)c3ccccc3SC)cc2F)CC1 (stereo not shown)
false (0)
